# tested_target: HLA A*3201 (Homo sapiens, UniProt P04439, A270S/D101S/D185E/E176V/E277Q/F133L/G103R/G107R/G231S/H175R/I121M/I218V/I322F/K168Q/L105A/L300P/L318F/M331R/P208A/P217A/Q94H/R106L/R138Q/S129P/T104I/T323A/T345S/V100E/V321M/V358M)
# experiment_description: biochemical
Where a SMILES comes first, the peptide text is derived from it.
The label is True for IC50 below 2 nM and False for IC50 equal to or exceeding 2 nM.

Bench note: check whether CC[C@H](C)[C@H](NC(=O)[C@H](CC(N)=O)NC(=O)[C@H](CC(N)=O)NC(=O)[C@H](CC(C)C)NC(=O)[C@@H](NC(=O)[C@H](CC(N)=O)NC(=O)[C@H](Cc1ccc(O)cc1)NC(=O)[C@H](CC(C)C)NC(=O)[C@@H](N)Cc1c[nH]cn1)[C@@H](C)CC)C(=O)O [3102.0432] (H-HLYNILNNI-OH) shows IC50 below 2 nM
False

Bench note: check whether CC[C@H](C)[C@H](NC(=O)[C@H](CCC(=O)O)NC(=O)[C@H](Cc1ccccc1)NC(=O)[C@H](CC(N)=O)NC(=O)[C@@H]1CCCN1C(=O)[C@H](CC(N)=O)NC(=O)[C@H](Cc1ccccc1)NC(=O)[C@@H](NC(=O)[C@@H](N)CC(C)C)[C@@H](C)O)C(=O)O [3102.0377] (H-LTFNPNFEI-OH) shows IC50 below 2 nM
False

Bench note: check whether CC[C@H](C)[C@H](NC(=O)[C@H](CC(N)=O)NC(=O)[C@H](Cc1ccc(O)cc1)NC(=O)[C@H](CC(=O)O)NC(=O)[C@@H](NC(=O)[C@H](Cc1ccc(O)cc1)NC(=O)[C@H](CC(N)=O)NC(=O)[C@H](CC(C)C)NC(=O)[C@@H](N)CCSC)C(C)C)C(=O)O [3102.0374] (H-MLNYVDYNI-OH) shows IC50 below 2 nM
True

Bench note: check whether CC[C@H](C)[C@H](NC(=O)[C@H](CO)NC(=O)[C@H](CC(C)C)NC(=O)[C@H](CO)NC(=O)[C@H](CCCNC(=N)N)NC(=O)[C@H](Cc1c[nH]c2ccccc12)NC(=O)[C@@H](NC(=O)[C@@H](NC(=O)[C@H](C)N)[C@@H](C)O)[C@@H](C)CC)C(=O)O [3102.0452] (H-ATIWRSLSI-OH) shows IC50 below 2 nM
True

Bench note: check whether CC[C@H](C)[C@H](N)C(=O)N[C@@H](CCSC)C(=O)N[C@@H](Cc1ccccc1)C(=O)N[C@@H](C)C(=O)N[C@@H](CCCCN)C(=O)N[C@H](C(=O)N[C@@H](CC(C)C)C(=O)N[C@@H](CC(=O)O)C(=O)N[C@@H](Cc1ccccc1)C(=O)O)[C@@H](C)O [3102.1190] (H-IMFAKTLDF-OH) shows IC50 below 2 nM
False

Bench note: check whether CC[C@H](C)[C@H](NC(=O)[C@H](CCCCN)NC(=O)[C@H](Cc1ccccc1)NC(=O)[C@H](CC(N)=O)NC(=O)[C@H](CC(N)=O)NC(=O)[C@H](Cc1ccccc1)NC(=O)[C@H](CC(C)C)NC(=O)[C@@H](NC(=O)[C@@H](N)CCCNC(=N)N)C(C)C)C(=O)O [3102.0429] (H-RVLFNNFKI-OH) shows IC50 below 2 nM
True

Bench note: check whether CC(C)C[C@H](NC(=O)[C@@H](NC(=O)[C@H](Cc1ccc(O)cc1)NC(=O)[C@H](CCCNC(=N)N)NC(=O)[C@H](CC(C)C)NC(=O)[C@H](CCC(=O)O)NC(=O)[C@H](Cc1ccc(O)cc1)NC(=O)[C@@H](NC(=O)[C@@H](N)C(C)C)[C@@H](C)O)[C@@H](C)O)C(=O)O [3102.0294] (H-VTYELRYTL-OH) shows IC50 below 2 nM
False

Bench note: check whether CC[C@H](C)[C@H](NC(=O)[C@H](CO)NC(=O)[C@H](C)NC(=O)[C@@H](NC(=O)[C@@H](NC(=O)[C@H](CC(N)=O)NC(=O)[C@H](CCCNC(=N)N)NC(=O)[C@@H](NC(=O)[C@@H](N)CCCNC(=N)N)C(C)C)[C@@H](C)CC)[C@@H](C)CC)C(=O)O [3102.0367] (H-RVRNIIASI-OH) shows IC50 below 2 nM
True

Bench note: check whether CSCC[C@H](NC(=O)[C@@H](N)C(C)C)C(=O)N[C@@H](Cc1ccc(O)cc1)C(=O)N[C@@H](C)C(=O)N[C@@H](Cc1ccccc1)C(=O)N[C@H](C(=O)N[C@H](C(=O)N1CCC[C@H]1C(=O)N[C@@H](CC(C)C)C(=O)O)[C@@H](C)O)[C@@H](C)O [3102.0516] (H-VMYAFTTPL-OH) shows IC50 below 2 nM
True

Bench note: check whether CC[C@H](C)[C@H](N)C(=O)N[C@H](C(=O)N[C@@H](CC(N)=O)C(=O)N[C@@H](CCCCN)C(=O)N[C@@H](Cc1ccccc1)C(=O)N[C@@H](Cc1ccccc1)C(=O)N[C@@H](CCC(=O)O)C(=O)N[C@H](C(=O)N[C@H](C(=O)O)[C@@H](C)CC)C(C)C)[C@@H](C)CC [3102.0325] (H-IINKFFEVI-OH) shows IC50 below 2 nM
False

Bench note: check whether CC[C@H](C)[C@H](NC(=O)[C@@H](NC(=O)[C@H](CC(N)=O)NC(=O)[C@H](CC(N)=O)NC(=O)[C@H](Cc1ccc(O)cc1)NC(=O)[C@H](CC(C)C)NC(=O)[C@@H](NC(=O)[C@@H](NC(=O)[C@@H](N)Cc1c[nH]cn1)[C@@H](C)O)[C@@H](C)CC)[C@@H](C)O)C(=O)O [3102.0385] (H-HTILYNNTI-OH) shows IC50 below 2 nM
True

Bench note: check whether CC[C@H](C)[C@H](NC(=O)[C@H](CO)NC(=O)[C@@H](NC(=O)[C@@H](NC(=O)[C@H](Cc1ccc(O)cc1)NC(=O)[C@H](CC(N)=O)NC(=O)[C@H](CO)NC(=O)[C@H](CC(C)C)NC(=O)[C@@H](N)Cc1c[nH]cn1)[C@@H](C)CC)C(C)C)C(=O)O [3102.0449] (H-HLSNYIVSI-OH) shows IC50 below 2 nM
True

Bench note: check whether CC[C@H](C)[C@H](NC(=O)[C@@H](NC(=O)[C@@H](N)CO)[C@@H](C)CC)C(=O)N[C@@H](CO)C(=O)N[C@@H](CC(C)C)C(=O)N[C@@H](Cc1ccccc1)C(=O)N[C@@H](Cc1ccc(O)cc1)C(=O)N[C@H](C(=O)N[C@@H](Cc1ccccc1)C(=O)O)[C@@H](C)O [3102.0919] (H-SIISLFYTF-OH) shows IC50 below 2 nM
False

###

# tested_target: HLA B*1501 (Homo sapiens, UniProt P01889, A329T/A93T/A95T/C349S/D201E/D98Y/E187L/E204Q/E69M/E70A/K202T/N87E/Q94N/R155S/R180W/S121R/S35A/S48A/V306I/V36M/Y140S/Y91S)
# experiment_description: biochemical
Where a SMILES comes first, the peptide text is derived from it.
measurement_type: pIC50
# pIC50: negative log10 of molar concentration; output just the value

What value of measured pIC50 is listed for CC[C@H](C)[C@H](NC(=O)[C@H](CC(C)C)NC(=O)[C@@H](N)CCCNC(=N)N)C(=O)N[C@H](C(=O)N[C@@H](CC(C)C)C(=O)N[C@@H](Cc1ccccc1)C(=O)N[C@@H](CCC(=O)O)C(=O)N[C@H](C(=O)N[C@@H](Cc1ccccc1)C(=O)O)C(C)C)C(C)C [3102.0817] (H-RLIVLFEVF-OH) ?
8.17

What value of measured pIC50 is listed for CSCC[C@H](NC(=O)[C@@H](N)CCCNC(=N)N)C(=O)N[C@@H](Cc1ccccc1)C(=O)N[C@@H](Cc1c[nH]cn1)C(=O)N[C@@H](Cc1ccccc1)C(=O)N[C@@H](Cc1ccccc1)C(=O)N[C@@H](CCC(=O)O)C(=O)N[C@@H](Cc1c[nH]cn1)C(=O)N[C@@H](CCC(=O)O)C(=O)O [3102.0915] (H-RMFHFFEHE-OH) ?
7.17

What value of measured pIC50 is listed for CC[C@H](C)[C@H](NC(=O)[C@H](CC(N)=O)NC(=O)[C@H](Cc1ccccc1)NC(=O)[C@H](CCSC)NC(=O)[C@@H](N)CC(N)=O)C(=O)N[C@@H](CO)C(=O)N[C@@H](Cc1ccccc1)C(=O)N[C@@H](CCCNC(=N)N)C(=O)N[C@@H](Cc1ccccc1)C(=O)O [3102.0348] (H-NMFNISFRF-OH) ?
7.37

What value of measured pIC50 is listed for CC(C)C[C@H](N)C(=O)N[C@H](C(=O)N[C@@H](Cc1ccccc1)C(=O)N[C@@H](CC(=O)O)C(=O)N[C@@H](Cc1ccc(O)cc1)C(=O)N[C@H](C(=O)N[C@H](C(=O)N[C@H](C(=O)N[C@@H](Cc1ccccc1)C(=O)O)[C@@H](C)O)C(C)C)C(C)C)[C@@H](C)O [3102.0931] (H-LTFDYVVTF-OH) ?
8.60

What value of measured pIC50 is listed for CSCC[C@H](NC(=O)[C@H](CCC(N)=O)NC(=O)[C@H](CO)NC(=O)[C@H](CO)NC(=O)[C@@H](N)CC(C)C)C(=O)N[C@H](C(=O)N[C@@H](CO)C(=O)N[C@H](C(=O)N[C@@H](Cc1ccccc1)C(=O)O)[C@@H](C)O)[C@@H](C)O [3102.0940] (H-LSSQMTSTF-OH) ?
8.40

What value of measured pIC50 is listed for CC[C@H](C)[C@H](NC(=O)[C@@H](NC(=O)[C@H](CC(C)C)NC(=O)CNC(=O)[C@H](C)NC(=O)[C@H](Cc1ccc(O)cc1)NC(=O)[C@H](CCCCN)NC(=O)[C@H](CC(C)C)NC(=O)[C@@H](N)CC(C)C)[C@@H](C)O)C(=O)O [3102.1023] (H-LLKYAGLTI-OH) ?
8.35

What value of measured pIC50 is listed for CSCC[C@H](NC(=O)[C@H](Cc1c[nH]cn1)NC(=O)[C@H](CCC(=O)O)NC(=O)[C@H](Cc1ccccc1)NC(=O)[C@H](Cc1ccc(O)cc1)NC(=O)CNC(=O)[C@H](CCCNC(=N)N)NC(=O)[C@H](CO)NC(=O)[C@@H](N)CCSC)C(=O)O [3102.0982] (H-MSRGYFEHM-OH) ?
7.51

Attribution: paper PMC2248166
